# Tested on: DAPK2
# CONDITION PARAMETERS: concentration: 1 μM, replicates: in singlicate; n = 1;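 also: KINOMEscan kinase panel screen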
For each of the molecules below, state its %Inh.
Numbers only, in %.

Consider the reported %Inh for these molecules:
CC(C)Oc1ccc2c(-c3ccnc(Nc4ccc(N5CCN(C)CC5)cc4)n3)cnn2n1 [GW696155] : 90.3
Fc1ccc(-c2ncn(CCCN3CCOCC3)c2-c2ccccn2)cc1 [SB-211742] : 0
COc1cc(Nc2nccc(N3CCC(NC(=O)c4cccc(NC(C)=O)c4)C3)n2)cc(OC)c1OC (stereo not drawn) [GSK1379754] : 8
CC(C)(C)n1cnc2c(N)ncnc21 [SKF-97359] : 19
O=C(c1ccc(-c2cc(-c3c[nH]nc3-c3ccccn3)ccn2)cc1)N1CCOCC1 [GW812171] : 0

Quick one: give me %Inh for each item below, same order please.
1. CN(C1=C(c2ccccc2)C(=O)NC1=O)c1ccccc1 [SB-334860]
2. Cc1cccc(Cn2ccn3c(=O)cc(N4CCOCC4)nc23)c1 [GSK2297542]
3. O=c1cc(N2CCOCC2)nc2n(Cc3cccc(Cl)c3Cl)c(C3CC3)nn12 [GSK2358994]
4. COc1ccc(COc2cc(-n3cnc4ccccc43)sc2C(N)=O)cc1 [GSK1024304]
5. c1ccc(-c2cc(-c3c[nH]nc3-c3ccccn3)ccn2)cc1 [GW576604]
6. c1ccc(-c2n[nH]cc2-c2ccnc3ccccc23)nc1 [GW271431]
7. O=C(NOCC1CC1)c1ccc(F)c(F)c1Nc1ccc(I)cc1Cl

RESULT:
0
5
12
10
0
0
0

Quick one: give me %Inh for each item below, same order please.
1. COc1cc2ncn(-c3cc(OCc4sccc4Cl)c(C(N)=O)s3)c2cc1OC [GSK448459]
2. CC(=O)Nc1ccc(COc2ccc(Nc3ccnc4cc(-c5ccccn5)ccc34)cc2)cc1.Cl [GW440148]
3. COc1ccc(Nc2nccc(N3CCC(NC(=O)Nc4cccc(C(C)=O)c4)C3)n2)cc1 (stereo not drawn) [GSK1379731]
4. Cn1cc(-c2ccc3c(c2)CCN3C(=O)Cc2ccccc2Cl)c2c(N)ncnc21 [GSK2608885]
5. O=C1NC(=O)C(N2CCc3ccccc32)=C1c1cccc(Cl)c1 [SB-408010]

RESULT:
1. 2
2. 0
3. 0
4. 0
5. 0

QUERY: Need %Inh of NS(=O)(=O)CCc1cccc(Nc2nccc(-c3c(-c4cccc(NC(=O)c5c(F)cccc5F)c4)nn4ccccc34)n2)c1 [GSK336735] , thanks.
RESULT: 0

* * *

# Test system: PKAC-beta
# Construct: gene PRKACB
# CONDITION PARAMETERS: concentration: 1 μM, replicates: in singlicate; n = 1
MEASURE: %Inh (%)
One number for each entry, in %.

Consider the reported %Inh for these compounds:
CC(C)Oc1ccc2c(-c3ccnc(Nc4ccc(N5CCN(C)CC5)cc4)n3)cnn2n1 [GW696155] : 0
Cc1cccc(-c2nc(Nc3ccc4ncsc4c3)c3ccccc3n2)n1 [GW867588] : 21
Cc1cccc(Cn2ccn3c(=O)cc(N4CCOCC4)nc23)c1 [GSK2297542] : 1
COc1ccc(Nc2nccc(N3CCC(NC(=O)Nc4cccc(C(C)=O)c4)C3)n2)cc1 (stereo not shown) [GSK1379731] : 0
N#Cc1c(N2CCOCC2)sc(-c2ccn[nH]2)c1-c1ccc(Cl)cc1 : 0

Quick one: give me %Inh for each item below, same order please.
1. Nc1nc(-c2ccc3c(N)n[nH]c3c2)cc(N2CCCC2)n1 [GSK2227430]
2. CCCCCc1nc2c(N)ncnc2n1CCCCC [SKF-97255]
3. CN1c2ccc(CNc3ccc(F)cc3)cc2-c2c(cnn2C)S1(=O)=O

RESULT:
[0, 0, 0]

* * *

For each of the molecules below, state its %Inh.
# Tested on: ABL2
# CONDITION PARAMETERS: concentration: 1 μM, replicates: in singlicate; n = 1
Give bare numbers, in %.

Consider the reported %Inh for these molecules:
Cc1cccc(-c2nc(-c3ccc(S(C)(=O)=O)cc3)sc2-c2ccncc2)c1 : 29
O=C(Nc1cccc(-c2nn3ncccc3c2-c2ccnc(Nc3cccc(C(F)(F)F)c3)n2)c1)c1c(F)cccc1F [GSK299495] : 35
NCC(NC(=O)c1cc(-c2cn[nH]c2)c(-c2ccnc3[nH]ccc23)s1)c1ccccc1.O=C(O)C(F)(F)F.O=C(O)C(F)(F)F (stereo not shown) [GSK1325775] : 0

Okay, now this molecule:
QUERY: Test system ABL2; read-out %Inh; what value for CN(C(=O)c1ccc(-c2cc(-c3c[nH]nc3-c3ccccn3)ccn2)cc1)C1CCOCC1 [GW810083] ?
RESULT: 0

* * *

For each of the compounds below, state its %Inh.
# Tested on: SRMS
# CONDITION PARAMETERS: concentration: 1 μM, replicates: in singlicate; n = 1
Answers are plain numbers, in %.

Consider the reported %Inh for these compounds:
O=c1cc(N2CCOCC2)nc2n(Cc3cccc4ccccc34)ccn12 [GSK2333389] : 0
COc1ccc(CNC(=O)NC2CCN(c3ccnc(Nc4ccc(OC)cc4)n3)C2)cc1 (stereo not drawn) [GSK1379727] : 5

Quick one: give me %Inh for each item below, same order please.
1. CC(C)Oc1ccc2c(-c3ccnc(Nc4ccc(N5CCN(C)CC5)cc4)n3)cnn2n1 [GW696155]
2. COc1cc(Nc2nccc(N3CCC(NC(=O)c4cccc(NC(C)=O)c4)C3)n2)cc(OC)c1OC (stereo not drawn) [GSK1379754]
3. NS(=O)(=O)c1cccc(-c2ccc3ncc(N4CCOCC4)nc3c2)c1 [GSK1535721]
4. Cc1cccc(Cn2ccn3c(=O)cc(N4CCOCC4)nc23)c1 [GSK2297542]
5. Fc1ccc(-c2nn3c(OCC(F)(F)F)cccc3c2-c2ccncc2)cc1 [GW514784]
6. CC(=O)Nc1ccc(COc2ccc(Nc3ccnc4cc(-c5ccccn5)ccc34)cc2)cc1.Cl [GW440148]

RESULT:
1: 0; 2: 0; 3: 6; 4: 11; 5: 0; 6: 88

Quick one: give me %Inh for each item below, same order please.
1. NS(=O)(=O)c1cccc(-c2ccc3nccc(-c4cccc(S(N)(=O)=O)c4)c3c2)c1 [GW867253]
2. Cl.Oc1cccc(Nc2ccnc3cc(-c4ccncc4)ccc23)c1 [GW494601]
3. O=C(NCCNc1ccnc(Nc2ccc(F)cc2)n1)c1cc2ccccc2s1 [GSK1379874]

RESULT:
27
0
0

Quick one: give me %Inh for each item below, same order please.
1. Cc1c2ccc(N(C)c3ccnc(Nc4cccc(S(N)(=O)=O)c4)n3)cc2nn1Cc1ccccc1.Cl.Cl [GW787226]
2. NCC(NC(=O)c1cc(-c2cn[nH]c2)c(-c2ccnc3[nH]ccc23)s1)c1ccccc1.O=C(O)C(F)(F)F.O=C(O)C(F)(F)F (stereo not drawn) [GSK1325775]
3. Cc1ccc(C(=O)NCC(N)=O)cc1-n1c(C)cc(OCc2ccc(F)cc2F)c(Br)c1=O

RESULT:
1: 67; 2: 0; 3: 0

Quick one: give me %Inh for each item below, same order please.
1. Fc1ccc(-c2ncn(CCCN3CCOCC3)c2-c2cccnc2)cc1 [SB-211743]
2. CCn1cnc2c(N)ncnc21 [GW345098]
3. COc1cc2ncn(-c3cc(OCc4sccc4Cl)c(C(N)=O)s3)c2cc1OC [GSK448459]
4. COc1cc2c(cc1OC[C@@H](O)CO)ncc1c3ccc(C#N)cc3[nH]c21

RESULT:
27
12
0
0

* * *

# Tested on: PIK3CG
# CONDITION PARAMETERS: concentration: 1 μM, replicates: in singlicate; n = 1
For each of the molecules below, state its %Inh.
Numbers only, in %.

Consider the reported %Inh for these molecules:
O=c1cc(N2CCOCC2)nc2n(Cc3cccc(F)c3)ccn12 [GSK2297430] : 0
NS(=O)(=O)c1cccc(-c2ccc3ncc(N4CCOCC4)nc3c2)c1 [GSK1535721] : 29
O=c1cc(N2CCOCC2)nc2n(Cc3cccc(Cl)c3Cl)c(C3CC3)nn12 [GSK2358994] : 45

Quick one: give me %Inh for each item below, same order please.
1. NCC(NC(=O)c1cc(-c2cn[nH]c2)c(-c2ccnc3[nH]ccc23)s1)c1ccccc1.O=C(O)C(F)(F)F.O=C(O)C(F)(F)F (centres unmarked) [GSK1325775]
2. CCCCCc1nc2c(N)ncnc2n1CCCCC [SKF-97255]

RESULT:
[3, 15]

* * *

For each of the compounds below, state its %Inh.
# Test system: PCTK2
# Construct: gene CDK17
# CONDITION PARAMETERS: concentration: 1 μM, replicates: in singlicate; n = 1
Numbers only, in %.

Cl.Nc1ncnc2occ(-c3ccc(NC(=O)Nc4cc(C(F)(F)F)ccc4F)cc3)c12 [SB-707548] : 80
O=C1NC(=O)C(N2CCc3ccccc32)=C1c1cccc(Cl)c1 [SB-408010] : 0
O=C(Nc1cccc(-c2nn3ncccc3c2-c2ccnc(Nc3cccc(C(F)(F)F)c3)n2)c1)c1c(F)cccc1F [GSK299495] : 0
CC(C)(C)n1cnc2c(N)ncnc21 [SKF-97359] : 0
Cc1nnc(-c2ccc3occ(-c4ccc(C(C)O)cc4)c3c2)o1 (stereo not drawn) : 11
O=C(NCCNc1ccnc(Nc2ccc(F)cc2)n1)Nc1ccccc1F [GSK1379880] : 16
NCC(NC(=O)c1cc(-c2cn[nH]c2)c(-c2ccnc3[nH]ccc23)s1)c1ccccc1.O=C(O)C(F)(F)F.O=C(O)C(F)(F)F (stereo not drawn) [GSK1325775] : 9
Cc1ccc(C(=O)NCC(N)=O)cc1-n1c(C)cc(OCc2ccc(F)cc2F)c(Br)c1=O : 2
Nc1nc(-c2ccc3c(N)n[nH]c3c2)cc(N2CCCC2)n1 [GSK2227430] : 0
NS(=O)(=O)c1cccc(-c2ccc3nccc(-c4cccc(S(N)(=O)=O)c4)c3c2)c1 [GW867253] : 0

Quick one: give me %Inh for each item below, same order please.
1. C[C@@H](Oc1cc(-n2cnc3ccc(NC(=O)NC(C)(C)C)cc32)sc1C(N)=O)c1ccccc1Cl [GSK346294]
2. Cn1ccc2ncnc(Oc3ccc(NC(=O)Nc4ccncc4)c(Cl)c3)c21
3. O=C(NCCNc1ccnc(Nc2ccc(F)cc2)n1)c1cc2ccccc2s1 [GSK1379874]
4. CSc1ccc(-c2cc3ncnc(SCC(=O)O)c3s2)cc1
5. Cc1cccc(Cn2ccn3c(=O)cc(N4CCOCC4)nc23)c1 [GSK2297542]
6. Cc1ccc(NC(=O)c2ccnc(N3CCN(C)CC3)c2)cc1-c1ccc(C(=O)NCC2CC2)cc1 [GW775604]
7. CCn1cnc2c(N)ncnc21 [GW345098]

RESULT:
9
0
0
0
16
0
0

QUERY: Test system PCTK2; read-out %Inh; what value for COC(=O)Nc1nc2cc(Oc3ccc(NC(=O)Nc4cc(F)ccc4F)cc3)ccc2[nH]1.Cl [GW701424] ?
RESULT: 0
